Biological target: PPARγ (Homo sapiens)
Sequence (P37231 1-505): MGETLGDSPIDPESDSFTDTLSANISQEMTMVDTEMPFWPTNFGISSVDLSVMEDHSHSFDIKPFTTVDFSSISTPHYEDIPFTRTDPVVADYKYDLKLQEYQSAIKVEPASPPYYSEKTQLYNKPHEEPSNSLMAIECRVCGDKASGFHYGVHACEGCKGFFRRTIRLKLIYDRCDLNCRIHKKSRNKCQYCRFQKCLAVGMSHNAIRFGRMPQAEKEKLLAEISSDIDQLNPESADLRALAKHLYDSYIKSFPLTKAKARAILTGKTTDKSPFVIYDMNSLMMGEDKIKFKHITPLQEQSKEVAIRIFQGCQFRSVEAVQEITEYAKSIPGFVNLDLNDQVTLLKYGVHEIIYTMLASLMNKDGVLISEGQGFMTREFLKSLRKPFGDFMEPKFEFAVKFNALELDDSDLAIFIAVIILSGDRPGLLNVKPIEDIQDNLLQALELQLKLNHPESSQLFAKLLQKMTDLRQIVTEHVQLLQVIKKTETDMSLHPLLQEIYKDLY
pIC50: −log10 of the molar value.
property-name: pIC50

INSERT INTO measurements (compound, property_name, test_result) VALUES
  ('O=C(/C=C/C=C/c1ccc2c(c1)OCO2)N1CCCCC1 [Piperine]', 'pIC50', 4.74);
